Target: Cystine/glutamate transporter (Homo sapiens) (UniProt Q9UPY5)
Sequence (Q9UPY5 whole entry): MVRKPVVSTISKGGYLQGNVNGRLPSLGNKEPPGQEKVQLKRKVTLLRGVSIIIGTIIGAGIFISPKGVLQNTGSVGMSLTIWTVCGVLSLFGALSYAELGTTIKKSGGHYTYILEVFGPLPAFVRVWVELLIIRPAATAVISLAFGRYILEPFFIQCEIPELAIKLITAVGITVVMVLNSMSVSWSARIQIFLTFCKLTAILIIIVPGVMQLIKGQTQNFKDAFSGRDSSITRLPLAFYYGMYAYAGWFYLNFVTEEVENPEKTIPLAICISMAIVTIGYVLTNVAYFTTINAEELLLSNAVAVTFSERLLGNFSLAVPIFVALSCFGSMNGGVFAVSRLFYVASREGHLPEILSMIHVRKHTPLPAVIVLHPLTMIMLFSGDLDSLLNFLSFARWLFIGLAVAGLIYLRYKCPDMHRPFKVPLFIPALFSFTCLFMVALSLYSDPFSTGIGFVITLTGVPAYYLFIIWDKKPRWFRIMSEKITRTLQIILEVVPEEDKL
Assay: Inhibition of amino acid transport system xc- in human SNB19 cells assessed as [3H]L-glutamate uptake at 500 uM by liquid scintillation counting
Type: cell-based
Design: scale not given: the % may be the effect or the level left
Conditions: SNB-19
property measured: Activity (%)

INSERT INTO assay_data (chemical_string, property_measured, meas_value) VALUES
  ('C/C(=N\Nc1ccc([N+](=O)[O-])cc1[N+](=O)[O-])c1c(C(=O)O)noc1CCc1ccc2ccccc2c1', 'Activity', 45),
  ('Cc1nn(-c2cc(C(F)(F)F)cc(C(F)(F)F)c2)c(=O)c2noc(C)c12', 'Activity', 82),
  ('Cc1ccc(-n2nc(C)c3c(C)onc3c2=O)cc1', 'Activity', 94),
  ('Cc1nn(-c2ccc(C(F)(F)F)cc2)c(=O)c2noc(C)c12', 'Activity', 99),
  ('Cc1nn(-c2ccc([N+](=O)[O-])cc2)c(=O)c2noc(C)c12', 'Activity', 85),
  ('Cc1nn(-c2ccc(F)cc2)c(=O)c2noc(C)c12', 'Activity', 86),
  ('C/C(=N\Nc1ccc([N+](=O)[O-])cc1)c1c(C(=O)O)noc1C', 'Activity', 22),
  ('Cc1nn(-c2ccc(F)cc2F)c(=O)c2noc(C)c12', 'Activity', 95);

# credit: ChEMBL document CHEMBL1157680
